Target: CatSper (Homo sapiens, UniProt Q7RTX7+Q86XQ3+Q8NEC5+Q96P56)
Construct: Motile spermatozoa were selected by a ‘swim-up’ procedure; endogenous in cells; host or cells: motile human spermatozoa (swim-up) from healthy donors
Assay: Inhibition of P4-induced Ca2+ influx in human sperm (screen 2 inhibitors)
Assay type: cell-based
Conditions: Mean IC50 (P4) µM (±SD), P4-induced response; pooled from 3 independent experiments
Reported IC50 values for a set of molecules
Reported Endpoint: IC50 (µM)

Molecule: C[C@]12CCC(=O)C(O)=C1CC[C@@H]1[C@@H]2CC[C@]2(C)C(=O)CC[C@@H]12 [formestane]
Recorded Measurement: 1.22
//
Molecule: C[C@]12CC[C@H]3[C@@H](CCC4=CC(=O)CC[C@@H]43)[C@@H]1CC[C@@H]2O [Nandrolone]
Recorded Measurement: 0.729
//
Molecule: C[C@]12CC[C@H]3[C@@H](CC[C@H]4C[C@H](O)CC[C@@H]43)[C@@H]1CCC2=O [S85]
Recorded Measurement: 0.495
//
Molecule: C[C@]12CC[C@@H](O)C[C@@H]1CC[C@@H]1[C@@H]2CC[C@]2(C)C(=O)CC[C@@H]12 [androsterone]
Recorded Measurement: 2.11

###

Molecular target: CatSper (Homo sapiens, UniProt Q7RTX7+Q86XQ3+Q8NEC5+Q96P56)
Construct: Motile spermatozoa were selected by a ‘swim-up’ procedure; endogenous in cells; host or cells: motile human spermatozoa (swim-up) from healthy donors
Test: Inhibition of P4-induced Ca2+ influx in human sperm (screen 2 inhibitors)
Assay type: cell-based
Reported Endpoint: IC50 (nM)

Compound: C[C@]12CC[C@H]3C(=CCc4cc(O)ccc43)[C@@H]1CCC2=O [equilin]
Recorded Measurement: 1850

###

Max amplitude (%) (± SD) values, listed per item
Target: CatSper (Homo sapiens, UniProt Q7RTX7+Q86XQ3+Q8NEC5+Q96P56)
Construct: Motile spermatozoa were selected by a ‘swim-up’ procedure; endogenous in cells; host or cells: motile human spermatozoa (swim-up) from healthy donors
Assay: Steroid-induced increase in [Ca2+]i in human sperm (Fluo-4 HTS assay, screen 1 activators)
Format: cell-based
Conditions: maximal amplitude of steroid-induced [Ca2+]i increase, relative to P4; 3 independent experiments

Molecule: C[C@]12CCC(=O)C=C1CC[C@@H]1[C@@H]2C(=O)C[C@]2(C)C(=O)CC[C@@H]12 [adrenosterone]
Tested On: CatSper (Homo sapiens, UniProt Q7RTX7+Q86XQ3+Q8NEC5+Q96P56)
Max amplitude (%) (± SD): 26 (±2) %

Molecule: C[C@]12CC[C@@H]3c4ccc(O)cc4CC[C@H]3[C@@H]1CC[C@@H]2O [estradiol-17 beta]
Tested On: CatSper (Homo sapiens, UniProt Q7RTX7+Q86XQ3+Q8NEC5+Q96P56)
Max amplitude (%) (± SD): 75 (±8) %

Molecule: C[C@H](CCC(=O)O)[C@H]1CC[C@H]2[C@@H]3[C@@H](O)C[C@@H]4C[C@H](O)CC[C@]4(C)[C@H]3CC[C@]12C [urosiol]
Tested On: CatSper (Homo sapiens, UniProt Q7RTX7+Q86XQ3+Q8NEC5+Q96P56)
Max amplitude (%) (± SD): 25 (±8) %

Molecule: C[C@]12CC[C@@H](O)C[C@H]1CC[C@@H]1[C@@H]2CC[C@]2(C)C(=O)CC[C@@H]12 [3-alpha-hydroxy-5-beta-androstan-17-one]
Tested On: CatSper (Homo sapiens, UniProt Q7RTX7+Q86XQ3+Q8NEC5+Q96P56)
Max amplitude (%) (± SD): 66 (±2) %

Molecule: C[C@]12CCC(=O)C=C1C=C[C@@H]1[C@@H]2CC[C@@]2(C)[C@H]1CC[C@@]2(O)CCC(=O)[O-].[K+] [canrenoic acid potassium salt]
Tested On: CatSper (Homo sapiens, UniProt Q7RTX7+Q86XQ3+Q8NEC5+Q96P56)
Max amplitude (%) (± SD): 34 (±2) %

###

Target: CatSper (Homo sapiens, UniProt Q7RTX7+Q86XQ3+Q8NEC5+Q96P56)
Construct: Motile spermatozoa were selected by a ‘swim-up’ procedure; endogenous in cells; host or cells: motile human spermatozoa (swim-up) from healthy donors
Assay: Inhibition of P4-induced Ca2+ influx in human sperm (screen 2 inhibitors)
Format: cell-based
Details: 3 independent experiments
Catalogue of Max P4 inhibition (%) (± SD) values
Reported Endpoint: Max P4 inhibition (%) (± SD)

Compound: CC(=O)[C@@]1(O)CC[C@H]2[C@@H]3C[C@H](C)C4=CC(=O)C=C[C@]4(C)[C@@]3(F)[C@@H](O)C[C@@]21C
Recorded Measurement: 29 (±12) %

Compound: C[C@]12CCC(=O)C=C1CC[C@@H]1[C@@H]2C(=O)C[C@]2(C)C(=O)CC[C@@H]12
Recorded Measurement: 24 (±3) %

Compound: C[C@]12CC[C@H](O)C[C@@H]1CC[C@@H]1[C@@H]2CC[C@]2(C)C(=O)CC[C@@H]12 [Epiandrosterone]
Recorded Measurement: 72 (±2) %

Compound: C[C@]12CC[C@@H]3c4ccc(OS(=O)(=O)O)cc4CC[C@H]3[C@@H]1CCC2=O [Estropipate]
Recorded Measurement: 90 (±10) %

###

Target: CatSper (Homo sapiens, UniProt Q7RTX7+Q86XQ3+Q8NEC5+Q96P56)
Construct: Motile spermatozoa were selected by a ‘swim-up’ procedure; endogenous in cells; host or cells: motile human spermatozoa (swim-up) from healthy donors
Experiment: Inhibition of P4-induced Ca2+ influx in human sperm (screen 2 inhibitors)
Type: cell-based
Conditions: 3 independent experiments
compounds and their reported Max P4 inhibition (%) (± SD)

Compound: C[C@]12CC[C@@H]3c4ccc(O)cc4CC[C@H]3[C@@H]1CCC2=O
Max P4 inhibition (%) (± SD): 67 (±2) %
//
Compound: C#C[C@]1(O)CC[C@H]2[C@@H]3CCC4=CC(=O)CC[C@]4(C)[C@H]3CC[C@@]21C
Max P4 inhibition (%) (± SD): 10 (±9) %
//
Compound: C[C@]12Cc3c[nH]nc3C[C@@H]1CC[C@@H]1[C@@H]2CC[C@@]2(C)[C@H]1CC[C@]2(C)O
Max P4 inhibition (%) (± SD): 96 (±2) %
//
Compound: C#C[C@]1(O)CC[C@H]2[C@@H]3CCc4cc(OC)ccc4[C@H]3CC[C@@]21C
Max P4 inhibition (%) (± SD): 4 (±3) %
//
Compound: C[C@]12CC[C@H]3[C@@H](CCC4=CC(=O)CC[C@@H]43)[C@@H]1CC[C@@H]2O
Max P4 inhibition (%) (± SD): 85 (±1) %
//
Compound: C[C@]12CC[C@@H](O)C[C@@H]1CC[C@@H]1[C@@H]2CC[C@]2(C)C(=O)CC[C@@H]12
Max P4 inhibition (%) (± SD): 61 (±6) %
//
Compound: C[C@H](CCC(=O)O)[C@H]1CC[C@H]2[C@@H]3[C@@H](O)C[C@@H]4C[C@H](O)CC[C@]4(C)[C@H]3CC[C@]12C
Max P4 inhibition (%) (± SD): 13 (±3) %
//
Compound: CC(=O)C1CCC2C3CC[C@H]4CC(=O)CC[C@]4(C)C3CC[C@]12C (stereo partly shown)
Max P4 inhibition (%) (± SD): 90 (±6) %
//
Compound: C[C@]12CCC(=O)C=C1C=C[C@@H]1[C@@H]2CC[C@@]2(C)[C@H]1CC[C@@]2(O)CCC(=O)[O-].[K+] [canrenoic acid potassium salt]
Max P4 inhibition (%) (± SD): 27 (±10) %
//
Compound: C#C[C@]1(OC(C)=O)CC[C@H]2[C@@H]3CCC4=C[C@@H](OC(C)=O)CC[C@@H]4[C@H]3CC[C@@]21C [ethynodiol diacetate]
Max P4 inhibition (%) (± SD): 22 (±14) %
//
Compound: C[C@]12CC[C@H]3[C@@H](CCC4=CC(=O)CC[C@@]43C)[C@@H]1CC[C@@H]2C(=O)CO
Max P4 inhibition (%) (± SD): 86 (±3) %
//
Compound: C#C[C@]1(O)CC[C@H]2[C@@H]3CCc4cc(O)ccc4[C@H]3CC[C@@]21C
Max P4 inhibition (%) (± SD): 50 (±14) %
//
Compound: CC(=O)[C@H]1CC[C@H]2[C@@H]3C[C@H](C)C4=CC(=O)CC[C@]4(C)[C@H]3[C@@H](O)C[C@]12C
Max P4 inhibition (%) (± SD): 83 (±4) %
//
Compound: CC(=O)O[C@]1(C(C)=O)CC[C@H]2[C@@H]3C=C(Cl)C4=CC(=O)CC[C@]4(C)[C@H]3CC[C@@]21C [chlormadinone acetate]
Max P4 inhibition (%) (± SD): 0 (±15) %
//
Compound: CC(=O)O[C@]1(C(C)=O)CC[C@H]2[C@@H]3C=C(C)C4=CC(=O)CC[C@@H]4[C@H]3CC[C@@]21C [nomegestrol acetate]
Max P4 inhibition (%) (± SD): 12 (±17) %
//
Compound: C[C@]12CC[C@H]3[C@@H](CC[C@H]4C[C@H](O)CC[C@@H]43)[C@@H]1CCC2=O
Max P4 inhibition (%) (± SD): 96 (±2) %

Entry source: paper PMC10397409
